# MFI at 100 nM annotations
- assayedSystem: T1, EGFR on cells (human, UniProt P00533)
- T1 construct: endogenous receptor on the cell surface; for A549 cells m5 is used; also called on NCI-H441, EBC-1, A431, MKN-45, HepG2 or T47D cells (cell line under assay)
- assay: flow cytometry, MKN-45 cells (c-MET+++ EGFR++)
# answer = number (no unit)

// known answers, use as guide
[[record]]
binder = "oa 225-L (antibody, V domains shown, one-armed (monovalent) anti-EGFR SEED molecule) VH: EVQLVQSGAEVKKPGASVKVSCKASGFSLTNYGVHWMRQAPGQGLEWIGVIWRGGNTDYNTPFTSRVTITSDKSTSTAYMELSSLRSEDTAVYYCARALTYYDYEFAYWGQGTLVTVSS VL: DIQMTQSPSSLSASVGDRVTITCRASQSIGTNIHWYQQKPGKAPKLLIKYASESISGVPSRFSGSGYGTDFTLTISSLQPEDVATYYCQQNNNWPTTFGQGTKVEIK"
experimentalreadout = "MFI at 100 nM"
observedresult = 83

[[record]]
binder = "oa225-M (antibody, V domains shown, one-armed (monovalent) anti-EGFR SEED molecule) VH: EVQLVQSGAEVKKPGASVKVSCKASGFSLTNYGVHWMRQAPGQGLEWIGVIWSGGNTDYNTPFTSRVTITSDKSTSTAYMELSSLRSEDTAVYYCARALTYYDYEFAYWGQGTLVTVSS VL: DIQMTQSPSSLSASVGDRVTITCRASQSIGTNIHWYQQKPGKAPKLLIKYASESISGVPSRFSGSGYGTDFTLTISSLQPEDVATYYCQQNYNWPTTFGQGTKVEIK"
experimentalreadout = "MFI at 100 nM"
observedresult = 144

[[record]]
binder = "oa 425 (antibody, V domains shown, one-armed (monovalent) anti-EGFR SEED molecule) VH: QVQLVQSGAEVKKPGASVKVSCKASGYTFTSHWMHWVRQAPGQGLEWIGEFNPSNGRTNYNEKFKSKATMTVDTSTNTAYMELSSLRSEDTAVYYCASRDYDYDGRYFDYWGQGTLVTVSS VL: DIQMTQSPSSLSASVGDRVTITCSASSSVTYMYWYQQKPGKAPKLLIYDTSNLASGVPSRFSGSGSGTDYTFTISSLQPEDIATYYCQQWSSHIFTFGQGTKVEIKR"
experimentalreadout = "MFI at 100 nM"
observedresult = 184


Below: the item to evaluate.
Input line: I am curious: what MFI at 100 nM value has been reported for oa 225-H (antibody, V domains shown, one-armed (monovalent) anti-EGFR SEED molecule) VH: EVQLVQSGAEVKKPGASVKVSCKASGFSLTNYGVHWMRQAPGQGLEWIGVIWSGGNTDYNTPFTSRVTITSDKSTSTAYMELSSLRSEDTAVYYCARALDYYDYEFAYWGQGTLVTVSS VL: DIQMTQSPSSLSASVGDRVTITCRASQSIGTNIHWYQQKPGKAPKLLIKYASESISGVPSRFSGSGYGTDFTLTISSLQPEDVATYYCQQNNEWPNTFGQGTKVEIK ?
Output line: 199
